Would you mind telling me the reported kon of each entry?
Target: T1, LILRB2-ECD-HIS (SinoBiological Cat #: 14132-H02H) (human, UniProt Q8N423 22-460)
T1 construct: Bought protein; also called monomeric antigen LILRB2-ECD-HIS; not shown: His tag
T1 sequence (Q8N423 other isoform, or with tags, fused parts or gaps H02H H02H): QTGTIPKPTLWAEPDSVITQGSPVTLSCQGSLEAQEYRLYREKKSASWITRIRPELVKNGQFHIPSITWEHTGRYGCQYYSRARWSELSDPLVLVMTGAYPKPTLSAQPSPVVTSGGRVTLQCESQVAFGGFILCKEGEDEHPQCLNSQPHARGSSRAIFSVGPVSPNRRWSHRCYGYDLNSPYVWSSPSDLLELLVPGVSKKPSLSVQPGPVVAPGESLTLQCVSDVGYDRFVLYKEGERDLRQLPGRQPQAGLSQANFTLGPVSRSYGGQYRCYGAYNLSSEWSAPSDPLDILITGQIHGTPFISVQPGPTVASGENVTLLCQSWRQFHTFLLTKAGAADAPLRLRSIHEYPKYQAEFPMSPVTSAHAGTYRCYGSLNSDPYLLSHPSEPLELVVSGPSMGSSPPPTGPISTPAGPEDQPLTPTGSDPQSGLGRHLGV
Assay: SPR (Carterra), LILRB2-ECD-his

Quick request: kon for each listed item, please.
1. D2M002-126 (antibody, V domains shown, Humanized and optimized variant of D2M002-026) VH: QVQLVQSGAEVKKPGASVKVSCKASGYTFTSYWIEWVRQAPGQGLEWIGEILPGDESTNYNAKFKGRVTFTTDTSTSTAYMELRSLRSDDTAVYYCARSGAGGYDSGAFAYWGQGTLVTVSS VL: AIQLTQSPSSLSASVGDRVTITCRASESVDTYGNSFMHWYQQKPGKAPKLLVYRTSNLESGVPSRFSGSGSGTDFTLTISSLQPEDFATYYCQQSNEDPWTFGGGTKVEIK
2. D2M002-002 (antibody, V domains shown, Hit from immunised mice; also called clone #2; anti-LILRB1/2 clone #2) VH: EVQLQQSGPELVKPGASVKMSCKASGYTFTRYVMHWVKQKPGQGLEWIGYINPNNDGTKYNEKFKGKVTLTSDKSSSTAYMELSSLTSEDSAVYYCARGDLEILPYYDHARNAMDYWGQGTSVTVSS VL: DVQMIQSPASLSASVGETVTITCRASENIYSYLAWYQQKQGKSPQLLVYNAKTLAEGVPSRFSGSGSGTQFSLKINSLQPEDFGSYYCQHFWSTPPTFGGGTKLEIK
3. D2M002-103 (antibody, V domains shown, also called P212_F01) VH: QVQLVQSGAEVKKPGASVKVSCKASGYTFTRYVMHWVRQAPGQRLEWMGWINPNNEETKYSQKFKGRVTLTRDTSASTAYMELSSLRSEDTAVYYCARADLEILPYYDHARYAMDYWGQGTLVTVSS VL: DIQMTQSPSSVSASVGDRVTITCRASENIYSHLAWYQQKPGKAPKLLVYNAKSLQSGVPSRFSGSGSGTDFTLTISSLQPEDFATYYCQHFWSTPPTFGGGTKVEIK
4. D2M002-026 (antibody, V domains shown, Hit; also called clone #26) VH: QVQLQQPGAELMKPGASVKISCKATGYTFSSYWIEWVKQRPGHGLEWIGEILPGDGSTNYNAKFKGQATFTADTSSNTAYMQFSSLTSEDSAVYYCARSGAGGYDSGAFAYWGQGTLVTVSS VL: DIVLTQSPASLAVSLGQRATISCRASESVDTYGNSFMHWYQQKPGQPPKLLVYRTSNLESGIPARFSGSGSGTDFTLTINPVEADDVATYYCQQSNEDPWTFGGGTKLEIK

496000 M⁻¹ s⁻¹
456000 M⁻¹ s⁻¹
781000 M⁻¹ s⁻¹
745000 M⁻¹ s⁻¹
